Test system: SNB-19 CNS
Method: NCI tumour cell line growth inhibition, 48 h
Readout label: TGI

{"Smiles notation": "CCOC(=O)c1cccc(NC(=O)CCl)c1", "Reported result": "> 92.8 µM"}
{"Smiles notation": "O=S(=O)(Nc1ncccn1)c1ccc(N=Nc2ccc(O)c3ncccc23)cc1", "Reported result": "> 100 µM"}
{"Smiles notation": "O=C(/C=C/c1ccc(B(O)O)cc1)/C=C/c1ccc(B(O)O)cc1", "Reported result": "21.2 µM"}
{"Smiles notation": "CC1(C)O[C@H]2Cn3c(c(C#N)c4ccccc43)[C@H]2O1", "Reported result": "> 100 µM"}
{"Smiles notation": "N=C(c1ccccc1)N(c1ccccc1)c1ccccc1", "Reported result": "> 100 µM"}
{"Smiles notation": "COC(=O)c1cn(CCCC(=O)O)nn1", "Reported result": "> 100 µM"}

The reported numbers originate from PubChem BioAssay (NCI).
